Numbers sourced from patent US10766869B2.

I'd be grateful if you could share measured fold induction at 10 µM for these entries.
tested on: primary rat mixed cortical cells; assay: In vitro myelination assay (MBP positive myelin strands, fold myelin pixels above background); assay type: cell-based; conditions: Rattus norvegicus, 10.0 μM compound, relative to baseline of no added compound; read-out: Fold myelin pixels above background, 10.0 μM

Value of fold induction at 10 µM reported for the molecule "Cc1cc(Nc2ncn(-c3cc(F)cc(F)c3)n2)cc(N2C[C@@H]3C[C@H]2CN3C2CC2)c1" is ≤ 1

// for each molecule in input: emit fold induction at 10 µM
1. Cc1cc(Nc2ncn(-c3ccnc(F)c3)n2)cc(NC2CCN(C3COC3)C2)c1 (centres unmarked)
2. c1cncc(-n2cnc(Nc3cc(C4CCOCC4)cc(C4CCOCC4)c3)n2)c1
3. Cc1cc(Nc2ncn(-c3ccncn3)n2)cc(N2CCN(C3CC3)CC2)c1
4. Fc1cc(-n2cnc(Nc3cc(C4CC4)cc(N4CCN(C5COC5)CC4)c3)n2)cc(F)n1

output:
1: ≤ 1; 2: 10 to 100; 3: 100 to 1000; 4: ≤ 1
